# credit: the supplement of paper PMC10567573

Recorded measurements of protein stability index, one per entry
B1: CSTF3 (parent)
chain: YVPEKVKKAEKKLEENPYDLDAWS

- Variants of: B1
- Assay text: protein stability index of a GFP-peptide fusion (GPS, HEK-293T) (PSI 1-6); higher = more stable;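 also: lentivirally expressed fusions sorted by FACS into six bins by GFP to DsRed ratio, PSI derived from sequencing read proportions per bin multiplied by bin number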
- Test settings: c terminus: a fixed tail appended
Number only, please.

Answered examples (3):
Mutation	Experimental readout	Result
E4S	protein stability index	1.62
K5Y	protein stability index	3.04
E10M	protein stability index	1.55

Lookup: I'd like to know its protein stability index. The variant in question is `L20K`
Found: 1.96

Lookup: Which value of protein stability index has been reported for `S24R` in the records?
Found: 2.02

Lookup: Give its protein stability index value. Item: `K5S`
Found: 3.44

Lookup: Using the record for `D19P` , report its protein stability index.
Found: 2.59

Lookup: protein stability index lookup needed for `P17R` , thanks.
Found: 2.29

Lookup: Field request: protein stability index | item: `Y1I`
Found: 4.63

Lookup: I have this variant here, `K8W` , and I need its recorded protein stability index.
Found: 3.37

Lookup: # input variant: `Y1H` ; wanted: its protein stability index
Found: 3.9

Lookup: Please report the recorded protein stability index for `A9F` .
Found: 3.1

Lookup: Return reported protein stability index; argument: `S24V`
Found: 2.85

Lookup: Which protein stability index is reported for this variant? `E15F`
Found: 2.55

Lookup: What does the data say about its protein stability index? Entry: `K8M`
Found: 2.97

Lookup: Data request, read-out protein stability index, for `K11N`
Found: 2.67

Lookup: Dear colleague, I am looking for the recorded protein stability index of the following variant: `K5A`
Found: 1.62
